Sourced from ChEMBL document CHEMBL3407478

Experiment: Tmax in Sprague-Dawley rat CSF at 10 mg equivalents/kg, po after 0.25 to 12 hrs
Format: ADME, organism-based, Cerebrospinal fluid
Outcome measure: Tmax (min)
Write the answer as a number in min, unit excluded.

Recorded Tmax (molecule O=C(O)c1cc(-c2ccc(OC3CC3)c(Cl)c2)ncn1 ): 30

---

Assay: Half life at steady state in Sprague-Dawley rat plasma at 6.2 mg equivalents/kg, iv
Assay type: ADME, cell-free
Outcome measure: half-life (h)
The figure you give is taken to be in h; do not add the unit.

Entry O=C(O)c1cc(-c2ccc(OC3CC3)c(Cl)c2)ncn1 — recorded half-life = 1.8

---

Target: Kynurenine 3-monooxygenase (Homo sapiens, UniProt O15229)
Sequence (O15229 whole entry): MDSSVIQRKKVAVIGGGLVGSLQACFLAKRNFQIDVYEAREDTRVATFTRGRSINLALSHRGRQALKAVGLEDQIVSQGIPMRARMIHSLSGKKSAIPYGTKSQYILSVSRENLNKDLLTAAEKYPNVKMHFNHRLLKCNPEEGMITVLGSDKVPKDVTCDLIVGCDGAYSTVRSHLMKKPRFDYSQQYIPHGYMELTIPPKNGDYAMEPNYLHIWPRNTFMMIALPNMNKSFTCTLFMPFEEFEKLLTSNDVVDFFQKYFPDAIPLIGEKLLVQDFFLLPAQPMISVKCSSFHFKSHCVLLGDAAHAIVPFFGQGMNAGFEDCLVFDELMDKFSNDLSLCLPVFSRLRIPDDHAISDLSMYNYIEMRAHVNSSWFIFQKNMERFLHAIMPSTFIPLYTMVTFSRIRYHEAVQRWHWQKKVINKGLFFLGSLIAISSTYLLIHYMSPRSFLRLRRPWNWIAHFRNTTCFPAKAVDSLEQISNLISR
Experiment: Inhibition of human KMO transfected in CHO cells assessed as conversion of kynurenine to 3-hydroxykynurenine by LC-MS/MS analysis
Format: cell-based
Outcome measure: IC50 (nM)
Lab book: enter the figure in nM, no units written.

Quick note, IC50 for O=C(O)c1cc(-c2ccc(Cl)c(Cl)c2)ncn1 landed at 33

The compound O=C(O)c1cc(-c2ccc(OC3CC3)c(Cl)c2)ncn1 showed IC50 equal to 8

---

Assay: Tmax in Sprague-Dawley rat brain at 6.2 mg equivalents/kg, iv
Type: ADME, tissue-based
Outcome measure: Tmax (min)
Provide only the numeric value, understood in min.

O=C(O)c1cc(-c2ccc(OC3CC3)c(Cl)c2)ncn1 has a reported Tmax of 4.98

---

Test: Half life in Sprague-Dawley rat kidney at 10 mg equivalents/kg, po after 0.25 to 12 hrs
Assay type: ADME, organism-based
Outcome measure: half-life (h)
# unit: h | format: bare number

Data point: O=C(O)c1cc(-c2ccc(OC3CC3)c(Cl)c2)ncn1 ; half-life = 2
